System: IgE antibody production by B cells
Assay: Evaluation of inhibitory activity against IgE antibody production
Assay type: cell-based
Settings: B-cell; mouse (Balb/C) spleen B cells cultured with LPS and mouse IL-4; IgE in culture supernatant by ELISA
Structures can show the parent of a compound that is named as a salt.
metric: IC50 (nM)

Below, 3 compounds whose answers are already recorded.
compound	IC50, nM
COc1cc(-c2ccc(C(=O)N3CCN(CCCN4CCN(C(=O)c5ccc(-c6cc(OC)c(OC(C)C)c(OC)c6)cc5)CC4)CC3)cc2)cc(OC)c1OC(C)C [Example 2, Dimethanesulfonate]	200
CCOc1c(OC)cc(-c2ccc(C(=O)N3CCN(CCCN4CCN(C(=O)c5ccc(-c6cc(OC)c(OCC)c(OC)c6)cc5)CC4)CC3)cc2)cc1OC [Example 4, Dimethanesulfonate]	400
COc1cc(-c2ccc(C(=O)N3CCN(CCCN4CCN(C(=O)c5ccc(-c6cc(OC)c(C(C)=O)c(OC)c6)cc5)CC4)CC3)cc2)cc(OC)c1C(C)=O [Example 5, Dihydrochloride]	600

I: CCCOc1c(OC)cc(-c2ccc(C(=O)N3CCN(CCCN4CCN(C(=O)c5ccc(-c6cc(OC)c(OCCC)c(OC)c6)cc5)CC4)CC3)cc2)cc1OC [Example 6, Dihydrochloride]
II: COc1cc(-c2ccc(C(=O)N3CCN(CCCN4CCN(C(=O)c5ccc(-c6cc(OC)c(OC)c(OC)c6)cc5)CC4)CC3)cc2)cc(OC)c1OC [Example 1, Dihydrochloride]
Query: Given the listed items, does I or II have the lesser reported IC50? // caller expects the label of the chosen entry
Result: II

###

List of melting point values.
Counter-ions that a name gives are not always drawn.

Below, 3 compounds whose answers are already recorded.
compound	melting point
CCCOc1c(OC)cc(-c2ccc(C(=O)N3CCN(CCCN4CCN(C(=O)c5ccc(-c6cc(OC)c(OCCC)c(OC)c6)cc5)CC4)CC3)cc2)cc1OC (as salt: hydrochloride) [Example 6, Dihydrochloride]	266 °C (dec.)
COc1cc(-c2ccc(C(=O)N3CCN(CCCN4CCN(C(=O)c5ccc(-c6cc(OC)c(OC(C)C)c(OC)c6)cc5)CC4)CC3)cc2)cc(OC)c1OC(C)C (as salt: methanesulfonate) [Example 2, Dimethanesulfonate]	235.5 °C (dec.)
CCOc1c(OC)cc(-c2ccc(C(=O)N3CCN(CCCN4CCN(C(=O)c5ccc(-c6cc(OC)c(OCC)c(OC)c6)cc5)CC4)CC3)cc2)cc1OC (as salt: methanesulfonate) [Example 4, Dimethanesulfonate]	245 °C (dec.)

// next item, melting point requested
Query: Quote melting point reported for COc1cc(-c2ccc(C(=O)N3CCN(CCCN4CCN(C(=O)c5ccc(-c6cc(OC)c(C(C)=O)c(OC)c6)cc5)CC4)CC3)cc2)cc(OC)c1C(C)=O (as salt: hydrochloride) [Example 5, Dihydrochloride] please.
Result: 240 °C (dec.)
